molecular target: recombinant PDE4 enzyme; assay: PDE4 assay: [3H] cAMP Scintillation Proximity Assay (SPA) of phosphodiesterase activity; conditions: yeast extract of recombinant PDE4 enzyme; 30 nM [3H] cAMP; 1 h at room temperature; pH 7.5
Give pIC50 for every item shown.
One number for each entry, as −log10 of the molar value.

Illustrative cases are given below, each with its answer.
- Molecular String: "CCn1nc(-c2cccc(-c3cccc(C(=O)NCCN4CCOCC4)c3)c2)cc(Nc2cncc3ccccc23)c1=O"
  Experimental Target: "recombinant PDE4 enzyme"
  Reported Property: "pIC50"
  Readout Value: 10.37
- Molecular String: "CCn1nc(-c2cccc(-c3cccc(C(=O)NC4CCC4)c3)c2)cc(Nc2cccc3ncccc23)c1=O"
  Experimental Target: "recombinant PDE4 enzyme"
  Reported Property: "pIC50"
  Readout Value: 9.68
- Molecular String: "CCn1nc(-c2cccc(-c3cccc(C(=O)NCC(=O)O)c3)c2)cc(Nc2cccc3ncccc23)c1=O"
  Experimental Target: "recombinant PDE4 enzyme"
  Reported Property: "pIC50"
  Readout Value: 10.38
- Molecular String: "CCn1nc(-c2cccc(-c3cccc(C(N)=O)c3)c2)cc(Nc2cccc3c2ccc[n+]3[O-])c1=O"
  Experimental Target: "recombinant PDE4 enzyme"
  Reported Property: "pIC50"
  Readout Value: 10.80
- Molecular String: "CCn1nc(-c2cccc(-c3cccc(C(=O)NCC(N)=O)c3)c2)cc(Nc2cccc3ncccc23)c1=O"
  Experimental Target: "recombinant PDE4 enzyme"
  Reported Property: "pIC50"
  Readout Value: 10.39
- Molecular String: "CCn1nc(-c2cccc(-c3cc(C(=O)NCCN4CCC[C@H]4COC)cc(C(=O)NC4CC4)c3)c2)cc(Nc2cccc3ncccc23)c1=O"
  Experimental Target: "recombinant PDE4 enzyme"
  Reported Property: "pIC50"
  Readout Value: 10.43
- Molecular String: "CCn1nc(-c2cccc(-c3cccc(C(=O)NCCN(C)C)c3)c2)cc(Nc2cccc3ncccc23)c1=O"
  Experimental Target: "recombinant PDE4 enzyme"
  Reported Property: "pIC50"
  Readout Value: 9.90
- Molecular String: "CCn1nc(-c2cccc(-c3cccc(C(=O)NC4CC4)c3)c2)cc(Nc2cccc3ncccc23)c1=O"
  Experimental Target: "recombinant PDE4 enzyme"
  Reported Property: "pIC50"
  Readout Value: 10.43
- Molecular String: "CCn1nc(-c2cccc(-c3cccc(C(=O)NCCN4CCCCC4)c3)c2)cc(Nc2cccc3ncccc23)c1=O"
  Experimental Target: "recombinant PDE4 enzyme"
  Reported Property: "pIC50"
  Readout Value: 10.35
- Molecular String: "CCn1nc(-c2cccc(-c3cccc(C(=O)NCCCCCCCN(C)CCO)c3)c2)cc(Nc2cccc3ncccc23)c1=O"
  Experimental Target: "recombinant PDE4 enzyme"
  Reported Property: "pIC50"
  Readout Value: 10.60

Dear reader, for each entry below, please note its pIC50.
1. CCn1nc(-c2cccc(-c3ccc(CC(=O)NCCN4CCCCC4)cc3)c2)cc(Nc2cccc3ncccc23)c1=O
2. CCn1nc(-c2cccc(-c3cccc(CCC(=O)NC4CC4)c3)c2)cc(Nc2cccc3ncccc23)c1=O
3. CCn1nc(-c2cccc(-c3cccc(C(=O)NC4CCCC4)c3)c2)cc(Nc2cccc3ncccc23)c1=O
4. CCn1nc(-c2cccc(-c3cccc(C(=O)NC4CCN(C)CC4)c3)c2)cc(Nc2cncc3ccccc23)c1=O
5. CCn1nc(-c2cccc(-c3cccc(C(=O)NC4CCC4)c3)c2)cc(Nc2cncc3ccccc23)c1=O
6. CCn1nc(-c2cccc(-c3cc(C(=O)NCCCN4CCC[C@H]4COC)cc(C(=O)NC4CC4)c3)c2)cc(Nc2cccc3ncccc23)c1=O
7. CCn1nc(-c2cccc(-c3cccc(C(=O)NCCN4CCOCC4)c3)c2)cc(Nc2cccc3ncccc23)c1=O
8. CCn1nc(-c2cccc(-c3ccc(C(=O)NCCN4CCCCC4)cc3)c2)cc(Nc2cncc3ccccc23)c1=O

[10.05, 10.00, 10.80, 9.76, 9.65, 10.64, 10.72, 9.89]

GET /value?item= `CCn1nc(-c2cccc(-c3ccc(C(=O)O)cc3)c2)cc(Nc2cncc3ccccc23)c1=O` &field=pIC50 returns 9.35
